These entries and their values trace back to patent US20110263694A1.

Tested on: normal PBMC
Test: MTT cytotoxicity on normal PBMC
Assay type: cell-based, human
Conditions: 5 or 10 μg/ml, 48 hours; FIG. 5B
value kind: cytotoxic effect on normal PBMC (MTT)

{"columns": ["compound", "value kind", "value measured"],
 "data": [
  ["C=CC(C)(C)c1c2c(c(O)c3c(=O)c4ccc(O)c(O)c4oc13)C=CC(C)(C)O2 [M6, Macluraxanthone]", "cytotoxic effect on normal PBMC (MTT)", "somewhat sensitive"],
  ["CC(C)=CCc1c(O)cc2oc3c(c(=O)c2c1O)C(CC=C(C)C)(CC=C(C)C)C(=O)C(O)=C3 [M4, allanxanthone C]", "cytotoxic effect on normal PBMC (MTT)", "no toxic effect"],
  ["COc1ccc2oc3cc(O)c(CC=C(C)C)c(O)c3c(=O)c2c1 [M1]", "cytotoxic effect on normal PBMC (MTT)", "no toxic effect"],
  ["COc1c(O)cc2oc3cc(O)c(CC=C(C)C)c(O)c3c(=O)c2c1CC=C(C)C [M2, α-mangostin]", "cytotoxic effect on normal PBMC (MTT)", "somewhat sensitive"]
]}
